target.under.test: Endothelin-converting enzyme 1 (Homo sapiens, UniProt P42892)
Sequence (P42892 whole entry): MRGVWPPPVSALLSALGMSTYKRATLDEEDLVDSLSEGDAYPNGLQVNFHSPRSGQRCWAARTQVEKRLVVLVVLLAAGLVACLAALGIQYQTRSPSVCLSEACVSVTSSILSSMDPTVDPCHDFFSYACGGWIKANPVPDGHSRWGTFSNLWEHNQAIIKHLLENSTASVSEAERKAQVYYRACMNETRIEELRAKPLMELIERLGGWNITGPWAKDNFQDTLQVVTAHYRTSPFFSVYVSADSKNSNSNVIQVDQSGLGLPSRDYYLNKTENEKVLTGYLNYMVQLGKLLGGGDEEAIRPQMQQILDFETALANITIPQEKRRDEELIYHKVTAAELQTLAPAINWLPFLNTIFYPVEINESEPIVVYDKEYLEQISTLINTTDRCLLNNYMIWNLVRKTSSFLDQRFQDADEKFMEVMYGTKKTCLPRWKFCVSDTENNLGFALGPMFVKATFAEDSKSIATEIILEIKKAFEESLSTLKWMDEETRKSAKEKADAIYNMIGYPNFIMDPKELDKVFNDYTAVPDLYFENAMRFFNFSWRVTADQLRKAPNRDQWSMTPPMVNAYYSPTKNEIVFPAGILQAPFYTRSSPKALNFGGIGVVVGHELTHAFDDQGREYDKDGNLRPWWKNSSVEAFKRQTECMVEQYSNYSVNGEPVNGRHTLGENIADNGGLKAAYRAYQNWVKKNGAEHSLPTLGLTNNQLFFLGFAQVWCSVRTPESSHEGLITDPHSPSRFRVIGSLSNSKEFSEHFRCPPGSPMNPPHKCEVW
protocol.text: Inhibition activity towards human recombinant Endothelin-converting enzyme 1 (hECE-1c) expressed in Cos-7 cells
Format: cell-based
pKi: −log10 of the molar value.
Reported pKi by item:
observation.type: pKi

* O=C(O)[C@H](Cc1c[nH]c2ccccc12)NC(=O)[C@H](CS)[C@H]1CCc2ccccc21 | 7.59
* O=C(N[C@@H](Cc1c[nH]c2ccccc12)C(=O)O)C(CS)[C@@H]1CCCc2ccccc21 (some centres not stated) | 6.17
* O=C(O)C(Cc1c[nH]c2ccccc12)NC(=O)C(CS)c1cccc2ccccc12 (configuration not stated) | 5.81
* O=C(O)[C@H](Cc1c[nH]c2ccccc12)NC(=O)[C@@H](CS)[C@H]1CCc2ccccc21 | 6.54
* CC(c1cccc2ccccc12)C(CS)C(=O)NC(Cc1c[nH]c2ccccc12)C(=O)O (configuration not stated) | 6.22
* CC(c1ccc2ccccc2c1)C(CS)C(=O)NC(Cc1c[nH]c2ccccc12)C(=O)O (configuration not stated) | 6.01
* O=C(O)[C@H](Cc1c[nH]c2ccccc12)NC(=O)[C@@H](CS)[C@@H]1CCc2ccccc21 | 5.94
* O=C(O)[C@H](Cc1c[nH]c2ccccc12)NC(=O)[C@H](CS)[C@@H]1CCCc2ccccc21 | 5.91
* C[C@@H](c1ccccc1)[C@@H](CS)C(=O)N[C@@H](Cc1c[nH]c2ccccc12)C(=O)O | 6.70
* C[C@H](c1ccccc1)[C@@H](CS)C(=O)N[C@@H](Cc1c[nH]c2ccccc12)C(=O)O | 6.24
* O=C(O)[C@H](Cc1c[nH]c2ccccc12)NC(=O)[C@@H](CS)[C@H]1CCCc2ccccc21 | 6.72
* O=C(O)[C@H](Cc1c[nH]c2ccccc12)NC(=O)[C@H](CS)[C@@H]1CCc2ccccc21 | 6.17
* O=C(O)C(Cc1c[nH]c2ccccc12)NC(=O)C(CS)C1CCc2ccccc21 (configuration not stated) | 7.00
* C[C@@H](c1ccc(-c2ccccc2)cc1)[C@@H](CS)C(=O)N[C@@H](Cc1c[nH]c2ccccc12)C(=O)O | 6.87
* O=C(O)C(Cc1c[nH]c2ccccc12)NC(=O)C(CS)c1ccc(-c2ccccc2)cc1 (configuration not stated) | 5.38
* CC(c1ccccc1)C(CS)C(=O)NC(Cc1c[nH]c2ccccc12)C(=O)O (configuration not stated) | 6.52
* C[C@@H](c1ccccc1)[C@H](CS)C(=O)N[C@@H](Cc1c[nH]c2ccccc12)C(=O)O | 6.11
